# maps each entry to its z-score
# procedure text: mitochondrial membrane potential change in A549 cells, profiling panel, cell-based, JC-1 fluorescence, basal, 24 h, 100 nL (AID 1138);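 note: A549 lung adenocarcinoma cells under basal conditions with no added stimulus; test concentration not given here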
# measurement parameters: higher = more signal
quantity measured: z-score

[
  {
    "molecule": "CCOC(=O)C1=CC[C@@H](c2ccccc2)N(S(=O)(=O)c2ccc(C)cc2)[C@H]1C(=O)OCC",
    "measurement": 1.84
  },
  {
    "molecule": "CCC[C@@H]1C=C(C(=O)O)[C@H](c2ccc(C)cc2)N1S(=O)(=O)c1ccc(C)cc1",
    "measurement": -0.564
  },
  {
    "molecule": "O=C1N(CCS(=O)(=O)c2ccccc2)Cc2ccccc2C[C@]12N=C(c1ccc(OCCCO)cc1)O[C@@H]2c1ccccc1",
    "measurement": 0.685
  },
  {
    "molecule": "COc1ccc([Si](C)(C)[C@@H]2[C@@H](CCn3cc([C@H](O)c4ccccc4)nn3)O[C@]3(C(=O)N(Cc4ccc(N5C(=O)c6cccc7cccc5c67)cc4)c4ccccc43)[C@H]2C)cc1",
    "measurement": 1.57
  },
  {
    "molecule": "N#Cc1ccc(NN2C(C(O)C3CCCCC3)C=CC3C(=O)N(c4ccccc4)C(=O)C32)cc1 (configuration not stated)",
    "measurement": -0.309
  },
  {
    "molecule": "[N-]=[N+]=NCc1ccccc1C[C@]1(C(=O)O)N=C(c2ccc(OCCCO)cc2)O[C@H]1c1ccccc1",
    "measurement": 0.0539
  },
  {
    "molecule": "CCOC(=O)C[C@H]1[C@H](OC(=O)Cc2ccc3c(c2)OCO3)[C@@H](NC(=O)c2ccc(-c3ccccc3)cc2)c2cc(OCCCO)ccc2N1C(=O)c1ccccc1",
    "measurement": 2.42
  }
]

---

# Tested on: Neuregulin-1 EGF-like domain
# procedure text: binders of neuregulin-1 EGF-like domain, primary screen, biochemical, small-molecule microarray, 635 nm fluorescence (AID 1081);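 note: binding of the protein to compounds printed on small-molecule microarray slides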
# measurement parameters: small-molecule microarray binding, higher = more signal
Measured composite z-score accompanies every entry in the list below.

[
  {
    "compound": "O=C1O[C@@H](c2ccccc2)[C@@H](c2ccccc2)N2[C@@H](c3ccc(OCCO)cc3)[C@]3(C(=O)Nc4ccc(C#CC5=CCCCC5)cc43)[C@@H](C(=O)O)[C@H]12",
    "test system": "Neuregulin-1 EGF-like domain",
    "composite z-score": 1.12
  },
  {
    "compound": "C=C(CCCC)C(=O)CC[C@H](OC(=O)c1cccnc1)c1cccc(OCCO)c1",
    "test system": "Neuregulin-1 EGF-like domain",
    "composite z-score": 0.762
  },
  {
    "compound": "C=CC[C@@]1(C(=O)N2CCOCC2)N=C(c2ccc(OCCCO)cc2)O[C@@H]1c1ccccc1N=[N+]=[N-]",
    "test system": "Neuregulin-1 EGF-like domain",
    "composite z-score": 1.19
  },
  {
    "compound": "CCOC(=O)C1=CCC(c2ccc(C#N)cc2)N(S(=O)(=O)c2ccc(C)cc2)C1 (stereo not drawn)",
    "test system": "Neuregulin-1 EGF-like domain",
    "composite z-score": 1.27
  },
  {
    "compound": "COc1ccc(CCNC(=O)[C@@]2(c3ccc([N+](=O)[O-])cc3)CC(=O)N(CC34CC5CC(CC(C5)C3)C4)[C@@H]2c2ccc(CO)cc2)cc1",
    "test system": "Neuregulin-1 EGF-like domain",
    "composite z-score": 1.15
  },
  {
    "compound": "CCCCC=C[C@@H](NC(=O)c1cccs1)c1ccccc1",
    "test system": "Neuregulin-1 EGF-like domain",
    "composite z-score": 0.858
  },
  {
    "compound": "COC(=O)c1ccc(OC)c(/C=C\\CC(OC(C)=O)c2ccccc2)c1 (stereo not drawn)",
    "test system": "Neuregulin-1 EGF-like domain",
    "composite z-score": 0.971
  },
  {
    "compound": "Cc1ccc(S[C@]2(C(=O)NC3CC3)CC(=O)N(Cc3ccccc3)[C@@H]2c2ccc(CO)cc2)cc1",
    "test system": "Neuregulin-1 EGF-like domain",
    "composite z-score": 0.0059
  }
]

---

# test system: Alpha-bungarotoxin (Bungarus multicinctus) (UniProt P60615)
# Sequence (P60615 whole entry, looked up): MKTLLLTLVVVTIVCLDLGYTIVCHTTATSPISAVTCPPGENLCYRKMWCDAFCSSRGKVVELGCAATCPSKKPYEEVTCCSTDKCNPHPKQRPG
# procedure text: alpha-bungarotoxin binders on microarray, profiling panel, artefact control for SMM control protein annotation, biochemical, small-molecule microarray, Alexa647 label, 635/667 nm fluorescence (AID 1117)
# measurement parameters: alpha-BTX-A647 binding fluorescence, higher = more signal
Below: a set of entries, each annotated with reported composite z-score.
quantity measured: composite z-score

[
  {
    "molecular string": "C=CC[C@]1(C(=O)N2CCOCC2)N=C(c2ccc(OCCCO)cc2)O[C@H]1c1ccccc1",
    "quantity measured": "composite z-score",
    "measurement": 2.05
  },
  {
    "molecular string": "COc1ccccc1CN1C(=O)c2ccccc2[C@@H](C(=O)NCCN2CCOCC2)[C@@H]1c1ccc(CO)cc1",
    "quantity measured": "composite z-score",
    "measurement": -0.737
  },
  {
    "molecular string": "COC(=O)[C@@]1(Cc2ccccc2)[C@H]2c3cc(C(=O)N(C)C)n(Cc4c(-c5ccccc5)noc4C)c3C[C@H]2CN1C(=O)c1ccccc1",
    "quantity measured": "composite z-score",
    "measurement": 1.56
  },
  {
    "molecular string": "O=C1C[C@@](C(=O)NC2CC2)(c2ccc([N+](=O)[O-])cc2)[C@@H](c2ccc(CO)cc2)N1CC12CC3CC(CC(C3)C1)C2",
    "quantity measured": "composite z-score",
    "measurement": 0.601
  }
]

---

# System: Sonic hedgehog protein (Shh)
# procedure text: small-molecule binders of Shh protein, primary screen, biochemical, small-molecule microarray, 635/667 nm fluorescence (AID 1151);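 note: Shh protein binding to compounds spotted on small-molecule microarray slides; score combines spot fluorescence intensity with signal-to-noise across triplicate slides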
# measurement parameters: small-molecule microarray binding, 635 nm fluorescence; higher = more signal
We use -0.0004 as the dividing line for composite z-score: on or above the line is Y, below is N.

[
  {
    "compound": "COC(=O)[C@@]1(Cc2ccc(OC)cc2)[C@H]2c3cc(C(=O)N4CCCC4)n(CCc4c[nH]c5cc(F)ccc45)c3C[C@H]2CN1C(=O)c1ccccc1",
    "label value": "Y"
  },
  {
    "compound": "C=C(C(=O)CC[C@H](OC(C)=O)c1ccc(OCCO)cc1)C(C)C",
    "label value": "Y"
  },
  {
    "compound": "COc1c(C)cc(-c2cc3c(c(-c4ccc(Oc5ccccc5)cc4)n2)[Si](C(C)C)(C(C)C)OC3)cc1C",
    "label value": "Y"
  },
  {
    "compound": "CCCN1C(=O)[C@@]2(CCC(=O)OC(C)(C)C)N=C(c3ccc(OCCCO)cc3)O[C@H]2c2ccccc21",
    "label value": "Y"
  },
  {
    "compound": "O=C1O[C@@H](c2ccccc2)[C@@H](c2ccccc2)N2[C@@H](c3ccc(O)cc3)[C@]3(C(=O)Nc4ccc(C#CC5(O)CCCCCC5)cc43)[C@@H](C(=O)N3CCCCCCC3)[C@H]12",
    "label value": "Y"
  },
  {
    "compound": "COC(=O)c1ccc(C23CC2(C(NP(=O)(c2ccccc2)c2ccccc2)c2ccccc2)C3)cc1 (centres undefined)",
    "label value": "N"
  },
  {
    "compound": "C=CC[C@@]1(C(=O)O)N=C(c2ccc(OCCCO)cc2)O[C@@H]1c1ccccc1N=[N+]=[N-]",
    "label value": "N"
  },
  {
    "compound": "O=C1C2C=CC(C(O)c3ccc(-c4ccccc4)s3)N(n3cnnc3)C2C(=O)N1Cc1ccccc1 (centres undefined)",
    "label value": "N"
  },
  {
    "compound": "C=C(CCCC)C(=O)CC[C@H](OC(=O)c1cccnc1)c1cccc(OCCO)c1",
    "label value": "Y"
  },
  {
    "compound": "[N-]=[N+]=NCc1ccccc1C[C@]1(C(=O)O)N=C(c2ccc(OCCCO)cc2)O[C@H]1c1ccccc1CN=[N+]=[N-]",
    "label value": "N"
  },
  {
    "compound": "CC(=O)NCCCC[C@@H]1NC(=O)[C@H]2C[C@@H](C(=O)NCCCCCC[N+](C)(C)C)[C@@H](c3cccc(OCCO)c3)N2C1=O",
    "label value": "Y"
  },
  {
    "compound": "C=CCC(OC(C)=O)[C@@H]1[C@@H](N(Cc2cccc3ccccc23)C(=O)c2cccc3ccccc23)c2cc(OCCCO)ccc2N1C(=O)c1ccc2ccccc2n1 (some centres undefined)",
    "label value": "Y"
  },
  {
    "compound": "COCCOC(=O)N1C(=O)[C@@]2(c3cc(C#CCC(C(=O)OC)C(=O)OC)ccc31)[C@H](C(=O)N1CCCCCCC1)[C@H]1C(=O)O[C@H](c3ccccc3)[C@H](c3ccccc3)N1[C@@H]2c1ccc(OCCO)cc1",
    "label value": "Y"
  }
]
